The measurements presented in this section are drawn from patent US20260007758A1.

target: human somatostatin receptor subtype 2 (Homo sapiens, UniProt P30874); construct: expressed in transfected cells; experiment: Functional assay for SSTR2 agonists (HTRF cAMP); assay type: cell-based; conditions: CHO-K1 cells stably expressing human SST2; NKH477-stimulated cAMP; 20 min at 37 C; read-out: hSST2 cAMP Avg EC50
Sequence (P30874 whole entry): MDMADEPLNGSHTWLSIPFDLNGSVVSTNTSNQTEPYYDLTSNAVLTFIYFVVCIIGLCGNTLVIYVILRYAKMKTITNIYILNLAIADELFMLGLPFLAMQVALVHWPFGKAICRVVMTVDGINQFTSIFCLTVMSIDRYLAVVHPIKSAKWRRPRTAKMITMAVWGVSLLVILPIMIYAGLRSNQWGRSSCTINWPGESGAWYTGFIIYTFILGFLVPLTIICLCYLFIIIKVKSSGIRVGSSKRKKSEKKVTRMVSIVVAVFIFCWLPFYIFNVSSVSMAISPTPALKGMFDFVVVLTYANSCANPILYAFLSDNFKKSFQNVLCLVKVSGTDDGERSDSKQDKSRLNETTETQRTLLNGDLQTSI
Observed Property: EC50 (pM)
Report as a plain number; the unit pM is understood.

Q: For the compound CC[C@H](C)[C@@H]([C@@H](CC(=O)N1CCC[C@H]1[C@H](OC)[C@@H](C)C(=O)N[C@H](C)[C@@H](O)c1ccccc1)OC)N(C)C(=O)[C@@H](NC(=O)[C@H](C(C)C)N(C)C(=O)OCc1ccc(NC(=O)[C@H](CCCNC(N)=O)NC(=O)[C@@H](NC(=O)c2cc(NCCOCCC(=O)NCCNc3ncc(-c4cc(C)cc(F)c4)c(N4CCC(N)CC4)c3-c3nc4ccc(F)cc4[nH]3)cc(C(=O)NCC(=O)O)c2)C(C)C)cc1)C(C)C [Compound 165] , report EC50.
Result: 500

Q: Supply recorded EC50 for CC[C@H](C)[C@@H]([C@@H](CC(=O)N1CCC[C@H]1[C@H](OC)[C@@H](C)C(=O)N[C@H](C)[C@@H](O)c1ccccc1)OC)N(C)C(=O)[C@@H](NC(=O)[C@H](C(C)C)N(C)C(=O)OCc1ccc(NC(=O)[C@H](CCCNC(N)=O)NC(=O)[C@@H](NC(=O)CCOCCC(=O)NCCNc2ncc(-c3cc(C)cc(F)c3)c(N3CCC(N)CC3)c2-c2nc3ccc(Cl)cc3[nH]2)C(C)C)c(O[C@@H]2O[C@H](C(=O)N3CCOCC3)[C@@H](O)[C@H](O)[C@H]2O)c1)C(C)C [Compound 223] here.
Result: 54
